protocolText: RP, Waters ACQUITY UPLC BEH C18, 100 × 2.1 mm, 1.7 µm, 0.1 mL/min, estimated dead time 2.2 min; A: water + 0.1% formic acid, pH 3; B: methanol + 0.1% formic acid, pH 3; gradient (min/%B) 0/5 5/5 25/95 25.1/100 35/100 35.1/5 45/5
studyConditions: stereoisomer not certain
The entries below are paired with their reported LC retention time.
Mention the unit after the number when you answer.

Worked examples follow.
- compound: "c1ncc2[nH]cnc2n1"
  LC retention time: "2.69 min"
- compound: "CSc1ncnc2nc[nH]c12"
  LC retention time: "15.2 min"

Respond only with LC retention time recorded for NC(=O)c1ccc[n+](C2OC(COP(=O)(O)OP(=O)(O)OCC3OC(n4cnc5c(N)ncnc54)C(O)C3O)C(O)C2O)c1 (stereo not given)
2.78 min

Specify measured LC retention time for CSCC1OC(n2cnc3c(N)ncnc32)C(O)C1O (stereo not given) .
13.1 min

Give recorded LC retention time. Cc1cc2nc3c(=O)[nH]c(=O)nc-3n(CC(O)C(O)C(O)CO)c2cc1C (stereo not given)
15.7 min

====

protocolText: HILIC, Thermo Scientific Accucore HILIC, 100 × 2.1 mm, 2.6 µm, 0.5 mL/min, estimated dead time 0.44 min; A: water + 0.1% formic acid + 10 mM ammonium formate, pH 3; B: 5% water + 95% acetonitrile + 0.1% formic acid + 10 mM ammonium formate, pH 3; gradient (min/%B) 0/95 5/95 20/57 25/57 30/95 40/95
studyConditions: stereoisomer not certain
Where a name gives a salt, the structure may show the parent alone.
endpointLabel: LC retention time (min)
The reply should contain only the number, in min.

Check the records and state LC retention time for O=C(O)CCCCCCCC(=O)O
1.1

Tell me its LC retention time given CC(C)=CCNc1ncnc2nc[nH]c12 as the entry.
0.92

Given N[C@@H](Cc1cc(I)c(Oc2ccc(O)cc2)c(I)c1)C(=O)O , respond with its LC retention time.
8.63

Return LC retention time (reported value) for this compound: NC(C=O)C(O)C(O)C(O)COS(=O)(=O)O [D-GLUCOSAMINE 6-SULFATE]
11.8

// Input: Nc1ncnc2nc[nH]c12 . Output its LC retention time only.
2.08

Provide one value: measured LC retention time of O=C(O)c1ccc2ccccc2c1[O-] [1-HYDROXY-2-NAPHTHOATE]
0.82

State its LC retention time for this compound: O=C(O)CCCCCC(=O)O [6-CARBOXYHEXANOATE]
2.01

Report measured LC retention time; entry is CCCCCCCCCCCC(=O)O
9.23

Recall and state the measured LC retention time for O=S(=O)(O)Oc1c[nH]c2ccccc12 [INDOXYL SULFATE] .
0.54

// fetch LC retention time given entry O=c1[nH]c(=O)c2[nH]cnc2[nH]1
1.92

Provide LC retention time value for the following compound: NCCC(=O)NC(Cc1cnc[nH]1)C(=O)O (stereo not given)
15.4

Consider the compound CC(CCC(=O)NCC(=O)O)C1CCC2C3C(O)CC4CC(O)CCC4(C)C3CC(O)C12C (stereo not given) [GLYCOCHOLATE] . State its measured LC retention time.
9.61

Return reported LC retention time. Input compound: CC(=O)NCCCC(=O)[O-] [4-ACETAMIDOBUTANOATE]
2.99

Identify measured LC retention time associated with O=C(O)c1cc(=O)c2cccc(O)c2[nH]1
7.89

Origin of the recorded values: the RepoRT retention time repository (doi:10.1016/j.jchromb.2020.122105)
